molecular target: Potassium voltage-gated channel subfamily KQT member 2 (Rattus norvegicus); assay: rat KCNQ2 channel potentiation, selectivity assay for KCNQ1 potentiator project, KCNQ2-CHO-K1 cells (AID 493009); details: FluxOR thallium flux fluorescence, at 10 µM; stronger effect = higher value, scaled: buffer 0, activator control 100;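 note: assay conditions were tuned for KCNQ1 rather than KCNQ2 modulators; signal is max minus min fluorescence divided by baseline after thallium stimulus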
Calls of active or inactive are those of the source.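 Rule for the calls: active = mean duplicate potentiation above the buffer control mean plus 5 SD of buffer wells; inactive = the rest.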
readout: potentiation

Completed entries (count: 8):
CC(C)NC(=O)C1(S(=O)(=O)c2ccccc2)CC=CC1
inactive
CCCn1c(SCN2C(=O)c3ccccc3C2=O)nc2cc(Cl)ccc2c1=O
196% (active)
CN(C)CCCN1c2ccccc2Sc2ccc(Cl)cc21
inactive
CC(C)CSC1=NSC2=NC(=O)/C(=C\c3cccs3)C(=N)N12
inactive
Cc1nn(CCc2nn[nH]n2)c2nc(-c3ccc(C4CCCCC4)cc3)cc(C(F)(F)F)c12
182% (active)
CCOc1ccccc1NC(=S)NC(=O)c1ccco1
184% (active)
Cc1cccc(Cn2c(O)c(N=NC(=S)Nc3ccccc3F)c3ccccc32)c1
148% (active)
S=c1[nH]nc(CSc2nc3ccccc3s2)n1C1CCCCC1
147% (active)

Kindly give each listed record's potentiation.
1. O=C(CSc1nc2cc(Cl)ccc2s1)c1ccco1
2. Cc1ccc(Oc2ccc(NC(=O)Cn3ccsc3=N)cc2)cc1
3. COc1ccc(NC(=S)NC(=O)c2ccccc2Cl)cc1

// result
["inactive", "inactive", "inactive"]

----------
target: Potassium voltage-gated channel subfamily KQT member 2 (Rattus norvegicus); experiment: rat KCNQ2 channel potentiation, selectivity assay for KCNQ1 potentiator project, KCNQ2-CHO-K1 cells (AID 493009); details: FluxOR thallium flux fluorescence, at 10 µM, scaled: buffer 0, activator control 100;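 note: assay conditions were tuned for KCNQ1 rather than KCNQ2 modulators; signal is max minus min fluorescence divided by baseline after thallium stimulus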
Active and inactive are the calls of the source.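 The calls were made as follows: active = mean duplicate potentiation above the buffer control mean plus 5 SD of buffer wells; inactive = the rest.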
Return exactly one item of True = active, False = inactive

O=c1c2ccccc2sn1-c1ccccc1
True
CC[C@@H](C(=O)[C@@H](C)[C@@H](O)[C@H](C)CCc1ccc(C)c(O)c1C(=O)O)[C@H]1O[C@](CC)([C@H]2CC[C@](O)(CC)[C@H](C)O2)C[C@@H]1C
True
CCOC(=O)c1c(NC(=S)NC)sc2c1CC(C)(C)SC2
True
CN(C)c1oc(-c2ccc(OCc3ccc(Cl)cc3)cc2)nc1C#N
False
CCOC(=O)C1=C(CC)Nc2ccccc2N=C1NC(=O)CCNC(C)=O
False

// query So what was the verdict on "O=C(N/N=C/c1ccccn1)c1sc2ccccc2c1Cl" in this test?
// result True

// query So what was the verdict on "COc1cccc(C(=O)NNC(=O)C(=O)Nc2ccc(C)c(Cl)c2)c1" in this test?
// result True

// query So what was the verdict on Cc1onc(-c2ccccc2)c1C(=O)NC(=S)Nc1sc2c(c1C#N)CCC(C)C2 (stereo not given) in this test?
// result True

// query So what was the verdict on "Nc1nc(NCc2ccco2)nc(NC2CCCCC2)c1[N+](=O)[O-]" in this test?
// result False

// query So what was the verdict on "Fc1ccc(NC(=S)N/N=C/c2ccc(F)c(F)c2)c(F)c1" in this test?
// result False

----------
target: Potassium voltage-gated channel subfamily KQT member 1 (Homo sapiens); assay: KCNQ1 potassium channel potentiators, confirmation, FluxOR thallium flux, CHO cells, duplicates (AID 493007); settings: KCNQ1 cell line, FluxOR thallium flux fluorescence, at 10 µM, % of reference activator effect, buffer zero
Active and inactive are the calls of the source.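 Rule for the calls: active = potentiation averaged over duplicate wells exceeding buffer-only control mean by more than 3 SD; inactive = the rest.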
Return exactly one item of active, inactive

// query So what was the verdict on "O=C(NC(=S)Nc1ccccc1)c1cccs1" in this test?
// result inactive

// query So what was the verdict on "Cc1ccc(-n2ncc(C(=O)Nc3cc(Cl)cc(Cl)c3)c2C2CCNCC2)cc1C" in this test?
// result inactive

// query So what was the verdict on "Oc1oc(-c2cccc3ccccc23)nc1/C=N/c1nccs1" in this test?
// result active

// query So what was the verdict on "CN=C1c2cc3cc(OC)ccc3n2CCN1Cc1ccccc1" in this test?
// result inactive

// query So what was the verdict on "CSc1ncc(C(=O)Nc2ccccc2Cl)c(C)n1" in this test?
// result inactive

// query So what was the verdict on CCCCCCCCCCCC(=O)NC(Cc1ccc(OC)c([N+](=O)[O-])c1)C(=O)O (configuration not stated) in this test?
// result active

// query So what was the verdict on "O=C(CSc1nnc(NC(=O)C2CCC2)s1)Nc1ccc(N2CCOCC2)cc1" in this test?
// result inactive

// query So what was the verdict on Cc1ccc(NC(=S)N2CCC(N(C)CC3CCCO3)CC2)cc1 (configuration not stated) in this test?
// result active

// query So what was the verdict on "CC(C)CN1C(=O)/C(=C/c2cccs2)NC1=S" in this test?
// result active

// query So what was the verdict on "Fc1ccc(SCCc2ccncc2)cc1" in this test?
// result inactive

// query So what was the verdict on "Cc1ccccc1NS(=O)(=O)c1ccc2[nH]cc(C(=O)N(C)Cc3ccco3)c(=O)c2c1" in this test?
// result active

// query So what was the verdict on "COC(=O)C1=C(C(=O)OC)[C@@H]2N(C)c3ccccc3[C@@]23C[C@@H](C(=O)OC)N(C(=O)c2ccc(Br)cc2)C3=N1" in this test?
// result active

// query So what was the verdict on CC1(C)CC2CC(C)(CN2C(=S)NC(=O)c2ccccc2Cl)C1 (configuration not stated) in this test?
// result active

// query So what was the verdict on Cc1ccc(SCc2[nH]nc3c2C(c2ccco2)C(C#N)=C(N)O3)cc1 (configuration not stated) in this test?
// result inactive

// query So what was the verdict on "Cc1cc(/C=N\NC(=O)CC(=O)NC2CCCCC2)c(C)n1-c1cccc(Cl)c1Cl" in this test?
// result inactive

// query So what was the verdict on "CCCSC(=S)c1c(C)[nH]n(-c2ccccc2)c1=O" in this test?
// result active

// query So what was the verdict on "CN(c1ccccc1)S(=O)(=O)c1ccc(NC(=O)c2nc(S(C)(=O)=O)ncc2Cl)cc1" in this test?
// result inactive

// query So what was the verdict on "CCOC(=O)c1c(-c2ccccc2)oc2ccc(O)c(CN3CCN(C)CC3)c12" in this test?
// result inactive

// query So what was the verdict on C/C(=N\NC(=O)C(C)Sc1ccccc1)c1ccc([N+](=O)[O-])cc1 (configuration not stated) in this test?
// result inactive

// query So what was the verdict on "CC1=NOC(=O)/C1=C\c1ccc(-c2ccc(Cl)cc2Cl)o1" in this test?
// result inactive

// query So what was the verdict on "O=C(CCC(=O)c1ccc(F)cc1)Nc1cc(Cl)cc(Cl)c1" in this test?
// result inactive

// query So what was the verdict on "Oc1c(Cl)cc(Cl)cc1/C=N/c1nccs1" in this test?
// result inactive

----------
assay: thallium flux activation in parental CHO cells, counter-screen for KCNQ1 potentiator project (AID 493006); settings: parental CHO-K1 cells, FluxOR thallium flux, at 10 µM;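 for activation: fluorescence ratio of max minus min over baseline after K+ and Tl+ depolarization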
The source made the active and inactive calls.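 How the source made its calls: active means duplicate-averaged activation above buffer control mean plus 5 SD of those controls; inactive means the rest.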
Return exactly one item of 1 = active, -1 = inactive

CN1C(=O)NC(c2ccc(O)cc2)C(C(=O)c2cccs2)C1(O)C(F)(F)F (stereo unspecified)
-1
O=c1c2ccc(Cl)cc2nc(-c2cccc(C(F)(F)F)c2)n1O
1
N#Cc1cn(CC(=O)NCC2CCCO2)c2ccccc12 (stereo unspecified)
-1
CC(=O)Nc1ccc(S(=O)(=O)Nc2nc3ccccc3nc2Nc2ccccc2)cc1
-1
CC(=O)c1c(NC(=O)c2ccccc2)[nH]c(-c2ccccc2)nc1=S
1

Consider the record given below.
// query So what was the verdict on "FC(F)(F)c1cc(N2CCNCC2)c2ccccc2n1" in this test?
// result -1

----------
test system: TRPC4 beta (transient receptor potential cation channel C4), mouse; test: positive allosteric modulators of mouse TRPC4, confirmation, cell-based, Fluo-4, HEK293 TRPC4beta/mu-opioid (AID 2555); settings: DAMGO EC20, Fluo-4 calcium flux, at 10 µM
The source made the active and inactive calls.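 How the source made its calls: active means primary screen hit whose calcium fluorescence ratio, in both repeats, exceeds the weak agonist control mean by 3 SD; inactive means the rest.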
Return exactly one item of active, inactive

Solved entries:
Cc1onc(-c2ccccc2)c1C(=O)NNC(=S)NC(=O)/C=C/c1ccccc1
inactive
O=C(CCN1CCN(Cc2ccccc2)CC1)Nc1nccs1
active
CC(C)c1ccc(NC(=S)N(C)CCc2ccccn2)cc1
inactive
CC(C)(C)c1ccc(C(=O)NC(=S)NNC(=O)c2cccs2)cc1
inactive
Cc1ccccc1OCC(=O)NNC(=S)NC(=O)c1ccco1
inactive

Consider the record given below.
// query So what was the verdict on "CC(C)(C)C(=O)NC(=S)NNC(=O)c1ccc(-c2ccccc2)cc1" in this test?
// result inactive

----------
tested on: transient receptor potential cation channel C4 beta (TRPC4), mouse; test: activators of mouse TRPC4 channel, confirmation, cell-based, second round, Fluo4, HEK293 TRPC4beta/mu-opioid, 1 µM (AID 2461); settings: Fluo4 calcium fluorescence, at 1 µM
Activity calls are given as the source filed them.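 How the source made its calls: active means primary screen active and over 50% activation in each of two duplicate runs; inactive means the rest.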
Return exactly one item of y = active, n = inactive

Solved entries:
CCCCN(CC)CCCNC(=O)Cn1nc(Cc2ccncc2)c2ccccc2c1=O
y
Cc1ccccc1N(CC(=O)N/N=C/c1ccc(F)cc1)C(=O)c1ccccc1
n
CCc1cccc(CC)c1NC(=S)NCC(c1cccnc1)N(C)C (stereo unspecified)
y
Cc1onc(-c2ccccc2)c1C(=O)NNC(=S)NC(=O)/C=C/c1ccccc1
n

// query So what was the verdict on Cc1ccc(C2(O)CN(c3ccccc3C)C3=[N+]2CCS3)cc1 (stereo unspecified) in this test?
// result y

// query So what was the verdict on "CC(C)(C)c1ccc(C(=O)NC(=S)NNC(=O)c2cccs2)cc1" in this test?
// result n

// query So what was the verdict on "COc1cc(C(=O)NC(=S)NNC(=O)[C@H]2C[C@@H]2c2ccccc2)cc(OC)c1OC" in this test?
// result n

// query So what was the verdict on CN(C)C(CNC(=S)Nc1cccc(Cl)c1)c1ccccc1 (stereo unspecified) in this test?
// result y

// query So what was the verdict on COc1ccc(C(CNC(=O)C(C)c2ccc3cc(OC)ccc3c2)N(C)C)cc1 (stereo unspecified) in this test?
// result y

// query So what was the verdict on O=C(C1CCCN(Cc2ccccc2F)C1)N1CCc2ccccc2C1 (stereo unspecified) in this test?
// result y

Reference for the values: PubChem BioAssay
